test system: proteases in Pelophylax esculentus skin secretion; format: in vitro ADME; settings: sample 1: HCl final concentration 1%; sum of all proteolytic forms; LC-HRMS; all forms = 100%
Please provide measured Proteoforms, % for the entries that follow.
# output: bare number, implied unit %

Task: I am curious: what Proteoforms, % value has been reported for GXLSTLKNVAKTAGKGALQSLLNAASCKLSGQC-OH (disulfide) [Brev 2L, Brevinin 2L, natural disulfide skin peptide of Pelophylax esculentus, brevinin 2 family, 33 aa] ?
Result: 1.21

Task: I am curious: what Proteoforms, % value has been reported for GXWNTXKATGKSA ASNVAVTLLDKAKCK(LV)GEC-OH (disulfide) [Brev 2La, Brevinin 2La, natural disulfide skin peptide of Pelophylax esculentus, brevinin 2 family, 33 aa] ?
Result: 69.02

Task: I am curious: what Proteoforms, % value has been reported for GXFSKXAGKKXKNLXISGXKSVGKEVGMDVVRTGIDIAGCKIKGEC-OH (disulfide) [Escul 1R, Esculentin 1R, natural disulfide skin peptide of Pelophylax esculentus, esculentin 1 family, 46 aa] ?
Result: 27.69

###

Please provide measured Intact, % for the entries that follow.
tested on: proteases in Pelophylax esculentus skin secretion; assay type: in vitro ADME; settings: sample 1: aqueous P. esculentus skin secretion, HCl added to final concentration 1%; LC-HRMS; sum of intensities of all forms of the peptide = 100%; one frog per sample
# output: bare number, implied unit %

Task: I am curious: what Intact, % value has been reported for GXLDSLKNFAKDAAGILLKKASCKLSGQC-OH (disulfide) [Brev 2Ra, Brevinin 2Ra, natural disulfide skin peptide of Pelophylax esculentus, brevinin 2 family, 29 aa] ?
Result: 98.98

Task: I am curious: what Intact, % value has been reported for FFPAFLKVAAKVVPSXXCSITKKC-OH (disulfide) [Brev 1LE, Brevinin 1LE, natural disulfide skin peptide of Pelophylax esculentus, brevinin 1 family, 24 aa] ?
Result: 100

Task: I am curious: what Intact, % value has been reported for GXWNTXKATGKSA ASNVAVTLLDKAKCK(LV)GEC-OH (disulfide) [Brev 2La, Brevinin 2La, natural disulfide skin peptide of Pelophylax esculentus, brevinin 2 family, 33 aa] ?
Result: 30.98

Task: I am curious: what Intact, % value has been reported for GXFSKXAGKKXKNLXISGXKSVGKEVGMDVVRTGIDIAGCKIKGEC-OH (disulfide) [Escul 1R, Esculentin 1R, natural disulfide skin peptide of Pelophylax esculentus, esculentin 1 family, 46 aa] ?
Result: 64.86

###

System: proteases in Pelophylax esculentus skin secretion
Assay type: in vitro ADME
Settings: sample 5: PMSF 1.0 mM (in DMSO); sum of all proteolytic forms; LC-HRMS; all forms = 100%
Description: The inhibitory capacity of methanol and hydrochloric and formic acids, as well as PMSF at the minimum and maximum concentrations traditionally used in proteomics (0.1–1.0 mM), was compared via mass spectrometric monitoring of intact and proteolytic forms of nine peptides in five samples of Pelophylax esculentus secretions (samples 1–5). […]
Bridges are numbered along the chain shown (N, C = ends). Where no end group is shown, it is not given here.
parameter: Proteoforms, % (%)
# output: bare number, implied unit %

Task: I am curious: what Proteoforms, % value has been reported for GXLDSLKNLAKNAAQILLNKASCKLSGQC-OH (disulfide) [Brev 2Rd, Brevinin 2Rd, natural disulfide skin peptide of Pelophylax esculentus, brevinin 2 family, 29 aa] ?
Result: 79.16

Task: I am curious: what Proteoforms, % value has been reported for FFPAFLKVAAKVVPSXXCSITKKC-OH (disulfide) [Brev 1LE, Brevinin 1LE, natural disulfide skin peptide of Pelophylax esculentus, brevinin 1 family, 24 aa] ?
Result: 89.74

Task: I am curious: what Proteoforms, % value has been reported for GXLSTLKNVAKTAGKGALQSLLNAASCKLSGQC-OH (disulfide) [Brev 2L, Brevinin 2L, natural disulfide skin peptide of Pelophylax esculentus, brevinin 2 family, 33 aa] ?
Result: 80.51

Task: I am curious: what Proteoforms, % value has been reported for GXLDSLKNFAKDAAGILLKKASCKLSGQC-OH (disulfide) [Brev 2Ra, Brevinin 2Ra, natural disulfide skin peptide of Pelophylax esculentus, brevinin 2 family, 29 aa] ?
Result: 14.01

Task: I am curious: what Proteoforms, % value has been reported for GIFSKLGRKKIKNLLISGLKNVGKEVGMDVVRTGIDIAGCKIKGEC (disulfide 40-46) [Escul 1, Esculentin 1] ?
Result: 91.90

Task: I am curious: what Proteoforms, % value has been reported for GXFSKXAGKKXKNLXISGXKSVGKEVGMDVVRTGIDIAGCKIKGEC-OH (disulfide) [Escul 1R, Esculentin 1R, natural disulfide skin peptide of Pelophylax esculentus, esculentin 1 family, 46 aa] ?
Result: 99.26
